- System: THRa homodimer (NR concentration 90 nM)
- TEST: PBM binding z-score (relative to random genomic background probes); higher = stronger binding; sequences stand for … in GC…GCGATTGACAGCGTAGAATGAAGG
Each record here notes measured PBM binding z-score.
PROPERTY NAME: PBM binding z-score

- SEQUENCE DATA: "CCGACTGGGGAAGAAAGGTTACCATACCATCCGG"
  VALUE REPORTED: -0.21
- SEQUENCE DATA: "CAAACTAGGTCAAGAGGTCAAAATCCGCTTCCCG"
  VALUE REPORTED: 2.33
- SEQUENCE DATA: "GCACACAGGTGAAACGCAGGTAACTCAGGGTGGC"
  VALUE REPORTED: -0.486
- SEQUENCE DATA: "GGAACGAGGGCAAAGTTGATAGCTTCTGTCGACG"
  VALUE REPORTED: -0.251
- SEQUENCE DATA: "TAGCCTATGTCATGGGCCAGTATACCACGCGAAC"
  VALUE REPORTED: -0.74
- SEQUENCE DATA: "TGAACGAGGTTATAAGATCAGGGAACGTTGCAAA"
  VALUE REPORTED: -0.282
- SEQUENCE DATA: "CCTATTAGCTGACCATAAGGGCAACCGAAGCTCG"
  VALUE REPORTED: 1.18
- SEQUENCE DATA: "GCCTATAGGTAATACAAGGTGAAAGTCCGATTGT"
  VALUE REPORTED: 1.06
- SEQUENCE DATA: "ATCGAAAGGTCGATGGTGAGTATACCCACCCGAA"
  VALUE REPORTED: -0.577
- SEQUENCE DATA: "CAAACTAGGTCAAGTTCAAAGTCGGTTTGTGCCA"
  VALUE REPORTED: 2.16
- SEQUENCE DATA: "TAGCCTAGGTCATTGGGCGAGTATAGTACGCATC"
  VALUE REPORTED: 0.571
- SEQUENCE DATA: "TCATATAGGTAAATGCTAGGTGAAAGCCCGATCT"
  VALUE REPORTED: 0.116
